Test system: Escherichia coli TOP10
Assay: shrunken log2 fold change of peptide-encoding DNA abundance (4.5 h post-induction vs induction); higher = less antimicrobial activity (less host growth inhibition)
Conditions: time post-induction: 4.5 h; library: site-saturation at positions 5, 18, 19, 20
Outcome: True for shrunken log2 fold change of at least -0.03; False for anything lower.

Given the entry `RRIRGRPPRLPRPRPRPEYHPRP` , answer whether its shrunken log2 fold change meets or surpasses -0.03. True

Given the entry `RRIRRRPPRLPRPRPRPPCLPRP` , answer whether its shrunken log2 fold change meets or surpasses -0.03. True

Given the entry `RRIRYRPPRLPRPRPRPPVDPRP` , answer whether its shrunken log2 fold change meets or surpasses -0.03. True

Given the entry `RRIRIRPPRLPRPRPRPIEHPRP` , answer whether its shrunken log2 fold change meets or surpasses -0.03. True

Given the entry `RRIRYRPPRLPRPRPRPEIVPRP` , answer whether its shrunken log2 fold change meets or surpasses -0.03. True

Given the entry `RRIRDRPPRLPRPRPRPHFTPRP` , answer whether its shrunken log2 fold change meets or surpasses -0.03. False

Given the entry `RRIRGRPPRLPRPRPRPKIDPRP` , answer whether its shrunken log2 fold change meets or surpasses -0.03. True

Given the entry `RRIRNRPPRLPRPRPRPWCRPRP` , answer whether its shrunken log2 fold change meets or surpasses -0.03. False

Given the entry `RRIRLRPPRLPRPRPRPSDCPRP` , answer whether its shrunken log2 fold change meets or surpasses -0.03. False

Given the entry `RRIRIRPPRLPRPRPRPGMKPRP` , answer whether its shrunken log2 fold change meets or surpasses -0.03. False

Given the entry `RRIRQRPPRLPRPRPRPFCEPRP` , answer whether its shrunken log2 fold change meets or surpasses -0.03. False

Given the entry `RRIRHRPPRLPRPRPRPRSGPRP` , answer whether its shrunken log2 fold change meets or surpasses -0.03. False

Given the entry `RRIRVRPPRLPRPRPRPGPHPRP` , answer whether its shrunken log2 fold change meets or surpasses -0.03. True

Given the entry `RRIRERPPRLPRPRPRPFESPRP` , answer whether its shrunken log2 fold change meets or surpasses -0.03. True

Given the entry `RRIRPRPPRLPRPRPRPQRTPRP` , answer whether its shrunken log2 fold change meets or surpasses -0.03. True

Given the entry `RRIRDRPPRLPRPRPRPGAWPRP` , answer whether its shrunken log2 fold change meets or surpasses -0.03. True

Given the entry `RRIRVRPPRLPRPRPRPNNNPRP` , answer whether its shrunken log2 fold change meets or surpasses -0.03. False

Given the entry `RRIRGRPPRLPRPRPRPFKQPRP` , answer whether its shrunken log2 fold change meets or surpasses -0.03. True

Given the entry `RRIRLRPPRLPRPRPRPMTDPRP` , answer whether its shrunken log2 fold change meets or surpasses -0.03. False

Given the entry `RRIRERPPRLPRPRPRPAGWPRP` , answer whether its shrunken log2 fold change meets or surpasses -0.03. True

Given the entry `RRIRNRPPRLPRPRPRPVLPPRP` , answer whether its shrunken log2 fold change meets or surpasses -0.03. False

Given the entry `RRIRERPPRLPRPRPRPIQQPRP` , answer whether its shrunken log2 fold change meets or surpasses -0.03. False

Given the entry `RRIRFRPPRLPRPRPRPNEWPRP` , answer whether its shrunken log2 fold change meets or surpasses -0.03. True

Given the entry `RRIRDRPPRLPRPRPRPRTFPRP` , answer whether its shrunken log2 fold change meets or surpasses -0.03. False

Given the entry `RRIRERPPRLPRPRPRPNFTPRP` , answer whether its shrunken log2 fold change meets or surpasses -0.03. False

Given the entry `RRIRNRPPRLPRPRPRPSPYPRP` , answer whether its shrunken log2 fold change meets or surpasses -0.03. False

Given the entry `RRIRYRPPRLPRPRPRPSAMPRP` , answer whether its shrunken log2 fold change meets or surpasses -0.03. False

Given the entry `RRIRKRPPRLPRPRPRPKKCPRP` , answer whether its shrunken log2 fold change meets or surpasses -0.03. True

Given the entry `RRIRKRPPRLPRPRPRPLCIPRP` , answer whether its shrunken log2 fold change meets or surpasses -0.03. False

Given the entry `RRIRCRPPRLPRPRPRPCQNPRP` , answer whether its shrunken log2 fold change meets or surpasses -0.03. False

Given the entry `RRIRTRPPRLPRPRPRPPQMPRP` , answer whether its shrunken log2 fold change meets or surpasses -0.03. True

Given the entry `RRIRVRPPRLPRPRPRPTGCPRP` , answer whether its shrunken log2 fold change meets or surpasses -0.03. True

---

Assign shrunken log2 fold change to each entry below.
System: Escherichia coli TOP10;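 note: peptides expressed intracellularly from a pBAD plasmid library in pooled LB shake-flask culture, induced with 0.3% L-arabinose, DNA abundance read by NGS, three biological replicates, DESeq2 with apeglm shrinkage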
Experiment: shrunken log2 fold change of peptide-encoding DNA abundance (4.5 h post-induction vs induction); higher = less antimicrobial activity (less host growth inhibition)
Conditions: time post-induction: 4.5 h; library: site-saturation at positions 5, 18, 19, 20
// no unit, no text: just the number

Field shrunken log2 fold change (entry `RRIRLRPPRLPRPRPRPAHTPRP` ) reads 0.0258

Field shrunken log2 fold change (entry `RRIRKRPPRLPRPRPRPAITPRP` ) reads 0.613

Field shrunken log2 fold change (entry `RRIRERPPRLPRPRPRPRHMPRP` ) reads -0.0855

Field shrunken log2 fold change (entry `RRIRWRPPRLPRPRPRPNYTPRP` ) reads -0.279

Field shrunken log2 fold change (entry `RRIRWRPPRLPRPRPRPGCDPRP` ) reads 0.818

Field shrunken log2 fold change (entry `RRIRIRPPRLPRPRPRPNWKPRP` ) reads -0.00224

Field shrunken log2 fold change (entry `RRIRHRPPRLPRPRPRPHDFPRP` ) reads -0.0633

Field shrunken log2 fold change (entry `RRIRIRPPRLPRPRPRPSDVPRP` ) reads -0.838

Field shrunken log2 fold change (entry `RRIRQRPPRLPRPRPRPFQFPRP` ) reads -0.252

Field shrunken log2 fold change (entry `RRIRMRPPRLPRPRPRPIQCPRP` ) reads -0.239

Field shrunken log2 fold change (entry `RRIRMRPPRLPRPRPRPRHSPRP` ) reads 0.0596

Field shrunken log2 fold change (entry `RRIRNRPPRLPRPRPRPEKMPRP` ) reads -0.00664

Field shrunken log2 fold change (entry `RRIRSRPPRLPRPRPRPAEAPRP` ) reads 0.429

Field shrunken log2 fold change (entry `RRIRHRPPRLPRPRPRPRLHPRP` ) reads 0.0986

Field shrunken log2 fold change (entry `RRIRVRPPRLPRPRPRPGGSPRP` ) reads 0.0297

Field shrunken log2 fold change (entry `RRIRFRPPRLPRPRPRPYRWPRP` ) reads -0.0143

Field shrunken log2 fold change (entry `RRIRHRPPRLPRPRPRPSYLPRP` ) reads -0.683

Field shrunken log2 fold change (entry `RRIRRRPPRLPRPRPRPTTIPRP` ) reads -0.12

Field shrunken log2 fold change (entry `RRIRSRPPRLPRPRPRPHRGPRP` ) reads -0.128

Field shrunken log2 fold change (entry `RRIRTRPPRLPRPRPRPMYEPRP` ) reads -0.375

Field shrunken log2 fold change (entry `RRIRCRPPRLPRPRPRPVPLPRP` ) reads 0.00193

Field shrunken log2 fold change (entry `RRIRTRPPRLPRPRPRPHCDPRP` ) reads -0.0828

Field shrunken log2 fold change (entry `RRIRNRPPRLPRPRPRPLRVPRP` ) reads 0.896

Field shrunken log2 fold change (entry `RRIRPRPPRLPRPRPRPLDHPRP` ) reads -0.114

Field shrunken log2 fold change (entry `RRIRKRPPRLPRPRPRPSFTPRP` ) reads -0.272

Field shrunken log2 fold change (entry `RRIRGRPPRLPRPRPRPHASPRP` ) reads 0.585

Field shrunken log2 fold change (entry `RRIRWRPPRLPRPRPRPHNVPRP` ) reads -0.178

Field shrunken log2 fold change (entry `RRIRIRPPRLPRPRPRPMRSPRP` ) reads 0.000106

Field shrunken log2 fold change (entry `RRIRARPPRLPRPRPRPQCKPRP` ) reads -0.077

Field shrunken log2 fold change (entry `RRIRGRPPRLPRPRPRPHCTPRP` ) reads -0.0815

Field shrunken log2 fold change (entry `RRIRQRPPRLPRPRPRPVDGPRP` ) reads -0.13

Field shrunken log2 fold change (entry `RRIRERPPRLPRPRPRPRGLPRP` ) reads 0.159

Field shrunken log2 fold change (entry `RRIRNRPPRLPRPRPRPCTVPRP` ) reads -0.8

Field shrunken log2 fold change (entry `RRIRMRPPRLPRPRPRPMLTPRP` ) reads 2.52

Field shrunken log2 fold change (entry `RRIRPRPPRLPRPRPRPQKGPRP` ) reads -0.0684

Field shrunken log2 fold change (entry `RRIRGRPPRLPRPRPRPYYPPRP` ) reads -0.791

Field shrunken log2 fold change (entry `RRIRVRPPRLPRPRPRPMQLPRP` ) reads -0.0252

Field shrunken log2 fold change (entry `RRIRSRPPRLPRPRPRPDCIPRP` ) reads -0.163

Field shrunken log2 fold change (entry `RRIRTRPPRLPRPRPRPKINPRP` ) reads -0.325

Field shrunken log2 fold change (entry `RRIRRRPPRLPRPRPRPMFGPRP` ) reads -0.0512

Field shrunken log2 fold change (entry `RRIRQRPPRLPRPRPRPRVLPRP` ) reads -0.0985

Field shrunken log2 fold change (entry `RRIRLRPPRLPRPRPRPCWCPRP` ) reads 0.0793

Field shrunken log2 fold change (entry `RRIRPRPPRLPRPRPRPHPVPRP` ) reads 0.151

Field shrunken log2 fold change (entry `RRIRCRPPRLPRPRPRPPELPRP` ) reads 0.643

Field shrunken log2 fold change (entry `RRIRERPPRLPRPRPRPYATPRP` ) reads -0.359

Field shrunken log2 fold change (entry `RRIRIRPPRLPRPRPRPIYLPRP` ) reads -0.811

Field shrunken log2 fold change (entry `RRIRWRPPRLPRPRPRPCQKPRP` ) reads -0.00776

Field shrunken log2 fold change (entry `RRIRVRPPRLPRPRPRPFGMPRP` ) reads -0.0877

Field shrunken log2 fold change (entry `RRIRKRPPRLPRPRPRPTVAPRP` ) reads 0.814

Field shrunken log2 fold change (entry `RRIRTRPPRLPRPRPRPEVIPRP` ) reads -0.0149

Field shrunken log2 fold change (entry `RRIRNRPPRLPRPRPRPRNGPRP` ) reads -0.0619

Field shrunken log2 fold change (entry `RRIRARPPRLPRPRPRPCCHPRP` ) reads -0.454

Field shrunken log2 fold change (entry `RRIRGRPPRLPRPRPRPVWGPRP` ) reads 1.08

Field shrunken log2 fold change (entry `RRIRMRPPRLPRPRPRPTWHPRP` ) reads 0.309

Field shrunken log2 fold change (entry `RRIRARPPRLPRPRPRPAYMPRP` ) reads -0.64

Field shrunken log2 fold change (entry `RRIRWRPPRLPRPRPRPQQAPRP` ) reads -0.000157

Field shrunken log2 fold change (entry `RRIRKRPPRLPRPRPRPTRIPRP` ) reads 0.312

Field shrunken log2 fold change (entry `RRIRWRPPRLPRPRPRPENIPRP` ) reads -0.148

Field shrunken log2 fold change (entry `RRIRVRPPRLPRPRPRPRKGPRP` ) reads 0.328

Field shrunken log2 fold change (entry `RRIRYRPPRLPRPRPRPPGRPRP` ) reads 0.643

Field shrunken log2 fold change (entry `RRIRQRPPRLPRPRPRPDKLPRP` ) reads -0.522

Field shrunken log2 fold change (entry `RRIRSRPPRLPRPRPRPYFNPRP` ) reads -0.626

Field shrunken log2 fold change (entry `RRIRQRPPRLPRPRPRPWKYPRP` ) reads -0.149

These measurements were taken from the supplement of paper PMC9112550.
